These entries and their values trace back to patent US20250084091A1.

# targetEntity: SARS-CoV-2 main protease (Mpro) (Severe acute respiratory syndrome coronavirus 2, UniProt P0DTD1)
# assayComment: biochemical
# experimentalConditions: Table 2; read-out: Enzyme IC50
IC50 listing for selected compounds.
# unit: nM | format: bare number

Take a look at these entries with their results.
compound="O=C(c1cncc2cc[nH]c12)N1CCN(C2c3ccccc3CS(=O)(=O)c3ccccc32)CC1 (stereo not drawn)" unitssymbol=nM assayvalue=32
compound="CS(=O)(=O)c1ccccc1C(c1ccccc1)N1CCN(C(=O)c2cncc3cc[nH]c23)CC1 (stereo not drawn)" unitssymbol=nM assayvalue=53
compound=O=C(c1cncc(F)c1)N1CCC(C(O)(c2ccccc2)c2ccccc2)CC1 unitssymbol=nM assayvalue=1700
compound=O=C(c1cncc(Br)c1)N1CCN(C2c3ccccc3C=Cc3ccccc32)CC1 unitssymbol=nM assayvalue=100

Inquiry: Look at this compound and give its reported IC50. O=C(c1cncc(Cl)c1)N1CCN(C2c3ccccc3CCc3ccccc32)CC1
Reply text: 180

Inquiry: Give its IC50 value. Item: Cc1cncc(C(=O)N2CCC(=C(c3ccccc3)C3CCCCC3)CC2)c1
Reply text: 920

* * *

# targetEntity: SARS-CoV-2 main protease (Mpro) (Severe acute respiratory syndrome coronavirus 2)
# assayComment: biochemical
# experimentalConditions: Table 2; read-out: Enzyme IC50
Listed below: IC50 values for each entry.
Write down the numeric answer in nM and omit the unit.

compound=COc1cncc(C(=O)N2CCN(C3c4ccccc4CCc4ccccc43)CC2)c1 assayvalue=210
compound=O=C(c1cncc2[nH]ccc12)N1CCC(=C2c3ccccc3CS(=O)(=O)c3ccccc32)CC1 assayvalue=48
compound="Cc1cncc(C(=O)N2CCN(C(c3cccc(F)c3)c3ccccc3S(C)(=O)=O)CC2)c1 (stereo not drawn)" assayvalue=33
compound=Cc1cncc(C(=O)N2CCC(=C3c4ccccc4C=Cc4ccccc43)CC2)c1 assayvalue=120
compound="Cc1cncc(C(=O)N2CCN(C(c3ccccc3)c3cccnc3)CC2)c1 (stereo not drawn)" assayvalue=320

Inquiry: Using the record for O=C(c1cnccn1)N1CCN(C(c2ccccc2)c2ccccc2)CC1 , report its IC50.
Reply text: 7700

Inquiry: For the compound shown here, Cc1cncc(C(=O)N2CCN(C(c3ccccc3)c3ccccc3S(C)(=O)=O)CC2)c1 (stereo not drawn) , give the reported IC50.
Reply text: 610

Inquiry: Returns the measured IC50 for the input compound. Input: O=C1CN(C(=O)N2CCN(C3c4ccccc4CS(=O)(=O)c4ccccc43)CC2)c2ccccc2N1 (stereo not drawn)
Reply text: 550

* * *

# assayComment: Uninfected host cell cytotoxicity counter screen
# Format: cell-based
# experimentalConditions: human
outcomeMeasure: CC50 at 24 h

Consider the following illustrative entries.
compound="Cc1cncc(C(=O)N2CCN(C(c3ccccc3)c3cccc(C(F)(F)F)c3)CC2)c1 (centres unmarked)" outcomemeasure="CC50 at 24 h" assayvalue="22.9 µM"
compound=Cc1cncc(CN2CCN(C(c3ccccc3)c3ccccc3)CC2=O)c1 outcomemeasure="CC50 at 24 h" assayvalue="> 39.8 µM"
compound=Cc1cncc(CN2CCN(C(c3ccccc3)c3ccccc3)CC2)c1 outcomemeasure="CC50 at 24 h" assayvalue="> 39.8 µM"
compound=CC(=O)Nc1cncc(C(=O)N2CCN(C3c4ccccc4CCc4ccccc43)CC2)c1 outcomemeasure="CC50 at 24 h" assayvalue="34.2 µM"
compound="O=C1CC(CC(=O)N2CCN(C3c4ccccc4CS(=O)(=O)c4ccccc43)CC2)c2ccccc2N1 (centres unmarked)" outcomemeasure="CC50 at 24 h" assayvalue="> 39.8 µM"
compound="O=C(c1cncc2[nH]ccc12)N1CCN(C2c3ccccc3CS(=O)(=O)c3ccccc32)CC1 (centres unmarked)" outcomemeasure="CC50 at 24 h" assayvalue="> 39.8 µM"
compound=O=C(c1cncc2cc[nH]c12)N1CCC(=C2c3ccccc3CS(=O)(=O)c3ccccc32)CC1 outcomemeasure="CC50 at 24 h" assayvalue="> 39.8 µM"

Inquiry: If you can, please state the reported CC50 at 24 h value of O=C(c1cncc(Br)c1)N1CCN(C2c3ccccc3COc3ccccc32)CC1 (centres unmarked) .
Reply text: > 39.8 µM
